# target.system: Gastrin/cholecystokinin type B receptor (Homo sapiens, UniProt P32239)
# Sequence (P32239 whole entry): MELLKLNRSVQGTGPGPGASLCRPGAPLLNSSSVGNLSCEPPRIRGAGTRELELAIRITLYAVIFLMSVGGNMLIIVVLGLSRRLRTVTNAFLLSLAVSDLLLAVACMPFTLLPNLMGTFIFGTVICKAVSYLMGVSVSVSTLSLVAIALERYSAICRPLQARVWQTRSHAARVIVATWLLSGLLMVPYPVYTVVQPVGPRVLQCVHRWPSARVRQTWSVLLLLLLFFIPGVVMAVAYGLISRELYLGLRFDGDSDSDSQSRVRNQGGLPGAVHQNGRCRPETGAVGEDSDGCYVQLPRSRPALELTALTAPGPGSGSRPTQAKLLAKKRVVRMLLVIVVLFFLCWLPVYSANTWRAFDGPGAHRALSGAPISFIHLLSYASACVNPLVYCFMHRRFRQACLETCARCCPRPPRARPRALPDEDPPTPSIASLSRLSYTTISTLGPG
Measured Ki, listed per entry.
quantity.name: Ki (nM)

# compound, quantity.name, unit.info, recorded.value
records = [
    ("CC(C)N(C(=O)CN1C(=O)C(Cc2n[nH]c3ccccc23)C(=O)N(c2ccccc2)c2ccccc21)c1ccc(C(F)(F)F)cc1 (stereo not given)", "Ki", "nM", 1660),
    ("COc1ccc(N(C(=O)CN2C(=O)C(Cc3n[nH]c4c(F)cccc34)C(=O)N(c3ccccc3)c3ccccc32)C(C)C)cc1 (stereo not given)", "Ki", "nM", 1050),
    ("CC(C)(C)N(C(=O)CN1C(=O)C(Cc2n[nH]c3ccccc23)C(=O)N(c2ccccc2)c2ccccc21)c1ccccc1 (stereo not given)", "Ki", "nM", 891),
    ("CC(C)N(C(=O)CN1C(=O)C(Cc2n[nH]c3ccccc23)C(=O)N(c2ccccc2)c2ccccc21)c1ccc2c(c1)OCO2 (stereo not given)", "Ki", "nM", 724),
    ("COc1ccccc1N(C(=O)CN1C(=O)C(Cc2n[nH]c3ccccc23)C(=O)N(c2ccccc2)c2ccccc21)C(C)C (stereo not given)", "Ki", "nM", 129),
]
